Value source: ChEMBL document CHEMBL1140343

# Species: Rattus norvegicus
# assay_method_text: Percent residual insulin release in rat pancreatic islets upon incubation with the compound (1 uM) at 37 degree C for 90 mins
# Type: functional
Release values for the molecules below.
property_label: Release (%)

# molecule, property_label, unit_descriptor, result_value
data = [
    ("CC(C)NC1=NS(=O)(=O)c2cc(Br)c(Cl)cc2N1", "Release", "%", 25.7),
    ("CC(C)NC1=NS(=O)(=O)c2cc(Br)ccc2N1", "Release", "%", 34.9),
    ("CC(C)NC1=NS(=O)(=O)c2cc(Cl)c(Cl)cc2N1", "Release", "%", 13.2),
    ("O=S1(=O)NC(NC2CCC2)=Nc2cc(Cl)c(Cl)cc21", "Release", "%", 58.1),
    ("CCCNC1=NS(=O)(=O)c2cc(F)c(Cl)cc2N1", "Release", "%", 37.6),
    ("CC(C)NC1=NS(=O)(=O)c2cc(Cl)ccc2N1", "Release", "%", 36.2),
    ("CC1=Nc2ccc(Cl)cc2S(=O)(=O)N1 [DIAZOXIDE]", "Release", "%", 87.5),
    ("CCNC1=NS(=O)(=O)c2cc(Cl)c(Cl)cc2N1", "Release", "%", 8.5),
    ("O=S1(=O)N=C(NC2CCC2)Nc2cc(Cl)c(F)cc21", "Release", "%", 15.3),
    ("CCNC1=NS(=O)(=O)c2cc(Br)c(Cl)cc2N1", "Release", "%", 19.7),
    ("CCNC1=NS(=O)(=O)c2cc(F)c(Cl)cc2N1", "Release", "%", 7.3),
    ("CC(C)CNC1=NS(=O)(=O)c2cc(F)c(F)cc2N1", "Release", "%", 86.9),
    ("CC(C)NC1=NS(=O)(=O)c2cc(F)c(F)cc2N1", "Release", "%", 22.9),
    ("CCNC1=NS(=O)(=O)c2cc(F)c(F)cc2N1", "Release", "%", 22),
    ("COc1ccc2c(c1)S(=O)(=O)NC(NC(C)C)=N2", "Release", "%", 67.6),
    ("C=CCNC1=Nc2cc(Cl)c(Cl)cc2S(=O)(=O)N1", "Release", "%", 68.5),
    ("CC(C)NC1=NS(=O)(=O)c2cc(F)c(Cl)cc2N1", "Release", "%", 5.7),
    ("CCCNC1=NS(=O)(=O)c2cc(Cl)c(Cl)cc2N1", "Release", "%", 60.2),
]
